growth by entry:
Tested on: 786-0 renal
protocolText: NCI-60 one-dose screen, 48 h (100 = growth as untreated, 0 = no growth, -100 = all killed)
appliedConditions: 10 µM unless noted
Compounds without any hit were thinned out: in the full panel of roughly 83,000, 20% have a hit.
measureName: growth (%)

{"compound": "CCOC(=O)C1=C(C)NC(C)=C(C(=O)OCc2ccccc2)C1c1cccc(C#N)c1 (stereo not drawn)", "measureName": "growth", "reportedResult": 36.2}
{"compound": "COc1ccc(C2CC(c3cccc(OCCCCOc4cccc(C5=NN(C(C)=O)C(c6ccc(OC)cc6)C5)c4)c3)=NN2C(C)=O)cc1 (stereo not drawn)", "measureName": "growth", "reportedResult": 86.3}
{"compound": "O=C1[C@@H]2Cc3c([nH]c4ccccc34)[C@H](c3ccc(Br)cc3)N2C(=O)CN1C1CCN(Cc2c(Cl)cccc2Cl)CC1", "measureName": "growth", "reportedResult": 99.8}

----------
System: MALME-3M melanoma
protocolText: NCI-60 one-dose screen, 48 h (100 = growth as untreated, 0 = no growth, -100 = all killed)
appliedConditions: 10 µM unless noted
The panel holds about 83,000 compounds, 20% with a hit somewhere; the sample as a whole holds those more often.
Parameter growth: see the listing below.

{"compound": "C=C(C)[C@@H]1CC[C@]2(COP(=O)(OCC)OCC)CC[C@]3(C)[C@H](CC[C@@H]4[C@@]5(C)CC[C@H](OP(=O)(OCC)OCC)C(C)(C)[C@@H]5CC[C@]43C)[C@@H]12", "unitSpec": "%", "growth": 50.8}
{"compound": "CCOC(=O)c1cccnc1Nc1ccc(NC(=O)Nc2ccc(Cl)c(C(F)(F)F)c2)cc1", "unitSpec": "%", "growth": 51.4}
{"compound": "COc1ccc(/C=N/NC(=O)c2c(N)nn(C)c2Nc2ccccc2)cc1Oc1ccccc1", "unitSpec": "%", "growth": 91.1}
{"compound": "CN1CC[C@@H]2[C@@]3(C)CC[C@H](O)C(C)(C)[C@@H]3CC[C@@]2(C)[C@]2(C)CC[C@@]3(CO)CCC(C)(C)C[C@@H]3C12 (stereo not given in full)", "unitSpec": "%", "growth": 84.3}
{"compound": "Cc1[nH]c(C(=O)Nc2ccc(S(=O)(=O)N3CCCCC3)cc2OCCOCCOCCOCCOCCOCCOCCOCCOCCOc2cc(S(=O)(=O)N3CCCCC3)ccc2NC(=O)c2[nH]c(C)c3c2CCCCC3=O)c2c1C(=O)CCCC2", "unitSpec": "%", "growth": 3.69}
{"compound": "CC(C)NC(=O)c1cc(-c2ccc(NC(=O)Nc3ccc(F)cc3)cc2)nc2cccnc12", "unitSpec": "%", "growth": 118}
{"compound": "O=C(/C=C/c1ccccc1Cl)Nc1ncc(Cc2cc(Cl)ccc2Cl)s1", "unitSpec": "%", "growth": 39.7}
{"compound": "CNC(=O)c1cc(-c2ccc(NC(=S)Nc3cccc(C(F)(F)F)c3)cc2)nc2cccnc12", "unitSpec": "%", "growth": 112}
{"compound": "O=C1[C@@H]2Cc3c([nH]c4ccccc34)[C@H](c3ccc(Cl)cc3)N2C(=O)CN1C1CCN(Cc2ccccc2)CC1", "unitSpec": "%", "growth": 74.5}
{"compound": "Cc1ccc2c(n1)C(=O)C(Cl)=C(Nc1cccc(C(=O)OC(C)(C)C)c1)C2=O", "unitSpec": "%", "growth": 127}
{"compound": "CCN(CC)CCOc1ccc(C(=C(C)c2ccc(OC)cc2)c2ccc(OCCN(CC)CC)cc2)cc1", "unitSpec": "%", "growth": -92.1}
{"compound": "CC(C)(C)c1cc(NC(=O)Nc2ccc(-c3cn4c5c(sc4n3)CCc3cn(CCCN4CCCCC4)cc3-5)cc2)no1", "unitSpec": "%", "growth": -79.1}
{"compound": "CC(=O)/C(N=Nc1ccc2oc(=O)ccc2c1)=C(\\C)O", "unitSpec": "%", "growth": 58.3}
{"compound": "NC(=O)c1ncn2c(=O)n(CCF)nnc12", "unitSpec": "%", "growth": 72.8}
{"compound": "CCOC(=O)Nc1ccc2c(ccn2C(=O)c2cccc(F)c2)c1", "unitSpec": "%", "growth": 61.7}
{"compound": "CC(Nc1ncnc2ccc(-c3cnc(N)nc3)cc12)c1ccccc1 (stereo not given)", "unitSpec": "%", "growth": 28.9}
{"compound": "C[C@]12CC[C@H]3[C@@H](CC=C4C[C@@H](O)CC[C@@]43C)[C@@H]1CC[C@@H]2[C@](C)(O)CCc1cccnc1", "unitSpec": "%", "growth": 47}
{"compound": "COc1ccc2c(c1)c(-c1nn3cc(-c4ccncc4)nc3s1)cn2C", "unitSpec": "%", "growth": 89.9}
{"compound": "COc1cc2oc(-c3cccc(NC(=O)c4cccc([N+](=O)[O-])c4)c3)cc(=O)c2c(OC)c1OC", "unitSpec": "%", "growth": 33.7}
{"compound": "COc1ccc(NC2=C(Br)C(=O)C(C)=C(C)C2=O)cc1OC", "unitSpec": "%", "growth": 117}
{"compound": "CC1(C)C=Cc2cc(/C(N)=N/C(N)=N/c3nc4ccccc4s3)ccc2O1", "unitSpec": "%", "growth": 104}
{"compound": "CC(=C(c1ccc(OCCN(C)C)cc1)c1ccc(OCCN(C)C)cc1)c1ccc(Cl)cc1", "unitSpec": "%", "growth": -79.9}
{"compound": "COc1ccccc1/C=C1\\Oc2ccc(O)c(O)c2C1=O", "unitSpec": "%", "growth": 102}
{"compound": "Cc1cc(=O)[nH]c(O)c1C#N", "unitSpec": "%", "growth": 105}
{"compound": "CN(C)c1cccc2c(S(=O)(=O)Nc3cccc(-c4csc(NC(=O)CCCCCN5CCN(CCO)CC5)n4)c3)cccc12", "unitSpec": "%", "growth": 55.9}

----------
The entries below come with measured growth values attached.
Test system: SK-MEL-2 melanoma
protocolText: NCI-60 one-dose screen, 48 h (100 = growth as untreated, 0 = no growth, -100 = all killed)
appliedConditions: 10 µM unless noted
Compounds without any hit were thinned out: in the full panel of roughly 83,000, 20% have a hit.

{"molecule": "O=C(CSc1nnc(-c2ccc(Cl)cc2)n1-c1ccccc1)Nc1cccc(F)c1", "unitSpec": "%", "growth": 88.4}
{"molecule": "CN1CCN(c2ccc(C(=O)/C=C/c3cc(F)cc(C(F)(F)F)c3)cc2)CC1", "unitSpec": "%", "growth": 117}
{"molecule": "C1=CC(c2nn3c(-c4ccccc4)nnc3s2)=Cc2ccccc2O1", "unitSpec": "%", "growth": 74.7}
{"molecule": "Cc1[nH]c(C(=O)Nc2ccccc2OCc2cccc(C(=O)NC3CCCNC3)c2)c(Cl)c1Cl (centres undefined)", "unitSpec": "%", "growth": 102}

----------
System: PC-3 prostate
protocolText: NCI-60 one-dose screen, 48 h
appliedConditions: 10 µM unless noted
This is part of a sample that, as a whole, favours compounds with a hit. Of some 83,000 tested, about 20% had one in any assay. Activity calls are given as the source filed them. Rule for the calls: active = growth percent below 10; inactive = the rest.
Outcome codes: active, inactive

{"compound": "CCCC/C(=C\\c1ccc(O)c(O)c1)C(=O)NC(Cc1ccccc1)C(=O)C(=O)NCCc1ccc(OC)cc1 (stereo not drawn)", "group": "inactive"}
{"compound": "CCOC(=O)c1c(NC(=O)c2cccc(C(F)(F)F)c2)sc2c3c(ccc12)OCN(C)C3", "group": "active"}
{"compound": "N#Cc1c(-c2ccc(F)cc2)cc(-c2c[nH]c3ccccc23)nc1-c1c[nH]c2ccccc12", "group": "inactive"}
{"compound": "Clc1ccc2[nH]cc(-c3nn4cc(-c5ccncc5)nc4s3)c2c1", "group": "active"}
{"compound": "CN1CCN(Cc2ccc(NC(=O)c3cncc(C#Cc4cnc5ccc(N)nn45)c3)cc2C(F)(F)F)CC1", "group": "inactive"}
{"compound": "CN1CCN(Cc2ccc(NC(=O)c3cncc(C#Cc4cnc5ccc(OCC(F)F)nn45)c3)cc2C(F)(F)F)CC1", "group": "active"}
{"compound": "COC(=O)c1cccc(NC2=CC(=O)C(C)=C(C)C2=O)c1", "group": "inactive"}
{"compound": "CCN(CC)c1ccc(/C=N/NC(=O)c2ccc(S(N)(=O)=O)cc2)c(O)c1", "group": "inactive"}
{"compound": "CC(Nc1c(C#N)cnc2ccc(-c3cncc(O)c3)cc12)c1ccccc1 (stereo not drawn)", "group": "active"}
{"compound": "CCc1cc(OC(=O)N2CCC(N3CCCCC3)CC2)ccc1Nc1cc(-c2ccc(-n3cccn3)cc2)[nH]n1", "group": "inactive"}
{"compound": "N#Cc1c(-c2ccc(Br)cc2)cc(-c2c[nH]c3ccccc23)nc1N", "group": "inactive"}
{"compound": "CC1=C(C)C(=O)C(Nc2ccc(C)cc2)=C(Br)C1=O", "group": "inactive"}
{"compound": "Brc1ccc(-c2cc(-c3ccc4c(c3)OCCO4)n[nH]2)s1", "group": "inactive"}
{"compound": "CC[C@]12CC(C(=O)OC)=C3Nc4ccccc4[C@@]34CCN(C14)[C@@H]1c3cc4c(cc3O[C@@H]1[C@H]2O)NC1=C(C(=O)OC)C[C@@]2(CC)C3N(CC[C@@]143)C[C@H]1O[C@H]12 (stereo partly drawn)", "group": "inactive"}
{"compound": "CN1CC[C@@H]2[C@@]3(C)CC[C@H](O)C(C)(C)[C@@H]3CC[C@@]2(C)[C@]2(C)CC[C@@]3(CO)CCC(C)(C)C[C@@H]3C12 (stereo partly drawn)", "group": "inactive"}
{"compound": "Cc1ccccc1Nc1nc(SC(C)C)nc(-c2ccccc2)c1C#N", "group": "inactive"}
{"compound": "O=C(COc1ccc(/C=C2\\C(=O)Nc3ccc(Cl)cc32)cc1)Nc1ccc(Cl)cc1", "group": "inactive"}
{"compound": "Brc1cc(-c2cc(-c3ccc4c(c3)OC=CO4)[nH]n2)cs1", "group": "inactive"}
